system: UniProt P31389
Sequence (P31389 whole entry): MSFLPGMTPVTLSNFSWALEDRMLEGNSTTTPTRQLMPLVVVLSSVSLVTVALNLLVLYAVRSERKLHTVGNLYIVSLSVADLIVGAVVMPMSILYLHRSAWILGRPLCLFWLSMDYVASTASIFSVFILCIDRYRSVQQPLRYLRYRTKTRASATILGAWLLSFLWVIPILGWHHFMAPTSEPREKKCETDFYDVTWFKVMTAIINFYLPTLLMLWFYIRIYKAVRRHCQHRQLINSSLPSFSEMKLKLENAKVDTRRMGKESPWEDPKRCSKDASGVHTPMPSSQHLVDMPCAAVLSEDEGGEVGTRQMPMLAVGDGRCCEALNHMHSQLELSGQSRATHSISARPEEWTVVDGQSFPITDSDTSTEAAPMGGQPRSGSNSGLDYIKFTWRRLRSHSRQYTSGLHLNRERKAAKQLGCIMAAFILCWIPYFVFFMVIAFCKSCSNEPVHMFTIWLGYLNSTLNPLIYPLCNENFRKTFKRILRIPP
procedure-details: In vitro antagonism of histamine-induced contraction of guinea pig ileum at 1x10E-7M
Type: functional, tissue-based
Item-by-item account of inhibition
Report the value in % with no unit label.

Here's what some known entries look like.
{"molecule": "Cn1c(=O)c2c(ncn2CCCN2CCN(c3ccc(Cl)nn3)CC2)n(C)c1=O", "unit-spec": "%", "inhibition": 50}
{"molecule": "O=C1CC2(CCCC2)CC(=O)N1CCCCN1CCN(C(c2ccc(F)cc2)c2ccc(F)cc2)CC1", "unit-spec": "%", "inhibition": 77}
{"molecule": "O=C1C2C3C=CC(C4CC34)C2C(=O)N1CCCN1CCN(C(c2ccc(F)cc2)c2ccc(F)cc2)CC1 (centres undefined)", "unit-spec": "%", "inhibition": 29}
{"molecule": "Cn1c(=O)c2c(ncn2CCCN2CCN(C(c3ccccc3)c3ccc(Cl)cc3)CC2)n(C)c1=O (centres undefined)", "unit-spec": "%", "inhibition": 29}
{"molecule": "Cn1c(=O)c2c(ncn2CCCCN2CCN(C(c3ccc(Cl)cc3)c3ccc(Cl)cc3)CC2)n(C)c1=O", "unit-spec": "%", "inhibition": 14}

Req: I would be grateful if you could share the reported inhibition for O=C1C2C3C=CC(C4CC34)C2C(=O)N1CCCCN1CCN(c2ccc(Cl)nn2)CC1 (centres undefined) .
Resp: 76

Req: Request the reported inhibition associated with O=C1C2C3C=CC(C4CC34)C2C(=O)N1CCCCN1CCN(C(c2ccccc2)c2ccccc2)CC1 (centres undefined)
Resp: 50

Req: Requested read-out: inhibition. Entry: O=C1C2C3C=CC(C4CC34)C2C(=O)N1CCCCN1CCN(C(c2ccc(F)cc2)c2ccc(F)cc2)CC1 (centres undefined)
Resp: 98

Req: Which inhibition value belongs to Cn1c(=O)c2c(ncn2CCCN2CCN(c3cncc(Cl)n3)CC2)n(C)c1=O ?
Resp: 29

Req: I have this molecule here, Cl.Cl.Cn1c(=O)c2c(ncn2CCCN2CCN(C(c3ccc(F)cc3)c3ccc(F)cc3)CC2)n(C)c1=O , and I need its recorded inhibition.
Resp: 92
